FYI, the data here is from patent US11279687B2.

Target: UniProtKB P43490
Sequence (P43490 whole entry): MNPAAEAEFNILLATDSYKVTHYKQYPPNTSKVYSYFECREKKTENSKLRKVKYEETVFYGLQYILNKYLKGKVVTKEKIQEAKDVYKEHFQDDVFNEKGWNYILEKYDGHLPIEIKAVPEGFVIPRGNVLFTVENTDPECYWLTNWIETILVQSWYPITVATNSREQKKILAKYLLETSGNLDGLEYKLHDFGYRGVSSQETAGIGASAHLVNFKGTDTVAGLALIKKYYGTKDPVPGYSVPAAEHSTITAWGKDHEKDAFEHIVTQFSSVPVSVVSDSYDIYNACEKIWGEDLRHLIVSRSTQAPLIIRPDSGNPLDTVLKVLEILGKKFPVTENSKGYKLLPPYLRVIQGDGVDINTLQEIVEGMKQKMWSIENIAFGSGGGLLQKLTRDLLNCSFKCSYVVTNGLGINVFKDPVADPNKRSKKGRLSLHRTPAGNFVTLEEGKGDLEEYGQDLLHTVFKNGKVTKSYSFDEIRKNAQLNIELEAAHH
Assay: NAMPT biochemical inhibition assay (NMN quantified by mass spectrometry)
Details: NAMPT biochemical inhibition; read-out: Biochem IC50
pIC50: −log10 of the molar value.

>  <Test Smiles>
Cc1cccc(NS(=O)(=O)c2ccc(NC(=O)NCc3cccnc3)cc2)c1C

>  <pIC50>
9.05

$$$$
>  <Test Smiles>
O=C(NCc1cccnc1)Nc1ccc(S(=O)(=O)Nc2cccc(Cl)c2Cl)cc1

>  <pIC50>
8.70

$$$$
>  <Test Smiles>
CCOc1ccc(S(=O)(=O)c2ccc(NC(=O)NCc3cccnc3)cc2)cc1F

>  <pIC50>
8.92

$$$$
>  <Test Smiles>
O=C(NCc1cccnc1)Nc1ccc(S(=O)(=O)N2Cc3cccc4cccc(c34)C2)cc1

>  <pIC50>
8.70

$$$$
>  <Test Smiles>
CCCOc1cccc(S(=O)(=O)c2ccc(NC(=O)NCc3cccnc3)cc2)c1

>  <pIC50>
8.42

$$$$
>  <Test Smiles>
O=C(NCc1cccnc1)Nc1ccc(S(=O)(=O)c2ccc(OC(F)(F)F)cc2)cc1

>  <pIC50>
8.30

$$$$
>  <Test Smiles>
CCS(=O)(=O)Nc1cccc(S(=O)(=O)c2ccc(NC(=O)NCc3cccnc3)cc2)c1

>  <pIC50>
8.96

$$$$
>  <Test Smiles>
O=C(NCc1cccnc1)Nc1ccc(S(=O)(=O)c2cnc3ccccc3c2)cc1

>  <pIC50>
8.55

$$$$
>  <Test Smiles>
Cc1cc(Cl)ccc1S(=O)(=O)c1ccc(NC(=O)NCc2cccnc2)cc1

>  <pIC50>
8.22

$$$$
>  <Test Smiles>
O=C(NCc1cccnc1)Nc1ccc(S(=O)(=O)c2ccc3c(c2)OCCO3)cc1

>  <pIC50>
8.96

$$$$
>  <Test Smiles>
O=C(NCc1cccnc1)Nc1ccc(S(=O)(=O)c2cncnc2)cc1

>  <pIC50>
7.70

$$$$
>  <Test Smiles>
O=C(NCc1cccnc1)Nc1ccc(S(=O)(=O)c2cccc(Br)c2)cc1

>  <pIC50>
8.70

$$$$
>  <Test Smiles>
CC(C)COc1cccc(S(=O)(=O)c2ccc(NC(=O)NCc3cccnc3)cc2)c1

>  <pIC50>
8.48

$$$$
>  <Test Smiles>
O=C(NCc1cccnc1)Nc1ccc(S(=O)(=O)c2cc(F)cc(OCC(F)(F)F)c2)cc1

>  <pIC50>
8.96

$$$$
>  <Test Smiles>
O=C(NCc1cccnc1)Nc1ccc(S(=O)(=O)N2CCN(c3c(Cl)cncc3Cl)CC2)cc1

>  <pIC50>
8.52

$$$$
>  <Test Smiles>
CN(C)C(=O)c1cccc(S(=O)(=O)c2ccc(NC(=O)NCc3cccnc3)cc2)c1

>  <pIC50>
8.13

$$$$
>  <Test Smiles>
O=C(NCc1cccnc1)Nc1ccc(S(=O)(=O)c2cccc(Cl)c2)cc1

>  <pIC50>
8.52

$$$$
>  <Test Smiles>
CCOc1cccc(S(=O)(=O)c2ccc(NC(=O)NCc3cccnc3)cc2)c1

>  <pIC50>
8.77

$$$$
>  <Test Smiles>
O=C(NCc1cccnc1)Nc1ccc(S(=O)(=O)Nc2ccccc2-c2ccccc2)cc1

>  <pIC50>
8.52

$$$$
>  <Test Smiles>
C[C@@H]1CN(S(=O)(=O)c2ccc(NC(=O)NCc3ccc4nccn4c3)cc2)C[C@H](C)O1

>  <pIC50>
8.10

$$$$
